assay: E. coli acrAB mutant growth effects, primary screen, E. coli filamentation inducers, strain DRC39, OD650, 24 h (AID 1178); settings: higher = more signal, called active from +8 up or from −8 down;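 note: growth measured as culture turbidity by optical density at 650 nm; test concentration not given here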
Would you mind labelling by z-score? At or over -0.02 is criterion met, under is criterion not met.

{"columns": ["compound", "class label"],
 "data": [
  ["COc1ccc([Si](C)(C)[C@H]2[C@H](CC(=O)N3CCC[C@H]3CO)O[C@@]3(C(=O)N(Cc4ccc(N5CCC5=O)cc4)c4ccccc43)[C@@H]2C)cc1", "criterion not met"],
  ["Cc1ccc(S[C@]2(C(=O)NC(C)C)CC(=O)N(Cc3ccccc3Cl)[C@@H]2c2ccc(CO)cc2)cc1", "criterion not met"],
  ["CC(C)C[C@@H]1NC(=O)CNC(=O)[C@@]23C(=O)N[C@@H](Cc4ccccc4)C2[C@H](C)[C@@]2(C)O[C@H]2C3/C=C/C/C=C\\CNC1=O (stereo partly drawn)", "criterion met"],
  ["O=C1C[C@@](C(=O)NCc2ccccc2)(c2ccc([N+](=O)[O-])cc2)[C@@H](c2ccc(CO)cc2I)N1CC12CC3CC(CC(C3)C1)C2", "criterion met"],
  ["C=C(/C(=C/C[C@@H](OC(=O)c1ccncc1)c1cccc(OCCO)c1)c1cnc2ccccc2c1)C(C)C", "criterion not met"],
  ["COc1ccc([Si](C)(C)[C@H]2[C@H](CCO)O[C@@]3(C(=O)N(Cc4ccccc4)c4ccc(N5CCOC5=O)cc43)[C@@H]2C)cc1", "criterion met"],
  ["O=C1O[C@H](c2ccccc2)[C@H](c2ccccc2)N2[C@H]1[C@@H](C(=O)N1CCCCCCC1)[C@]1(C(=O)Nc3ccc(C#CC4(O)CCCCCC4)cc31)[C@H]2c1ccc(O)cc1", "criterion met"],
  ["COc1ccc([Si](C)(C)[C@H]2[C@H](CC(=O)N3Cc4ccccc4C[C@H]3CO)O[C@@]3(C(=O)N(Cc4ccc(N5C(=O)c6cccc7cccc5c67)cc4)c4ccccc43)[C@@H]2C)cc1", "criterion met"],
  ["C=C[C@H](C)[C@H](OC(=O)Nc1ccc(OC)cc1)c1ccc(OCCO)cc1", "criterion met"],
  ["NCCCCCNC(=O)[C@@H]1C[C@@H]2C(=O)N3CCC[C@H]3C(=O)N2[C@@H]1c1ccc(O)cc1", "criterion not met"],
  ["CC(C)C(=C=CC[C@@H](O)c1cccc(OCCO)c1)C[C@@H](O)c1ccccn1", "criterion met"],
  ["CC(=O)NCCCC[C@@H]1NC(=O)[C@H]2C[C@@H](C(=O)NCCCCCNC(=O)CS)[C@@H](c3cccc(OCCO)c3)N2C1=O", "criterion not met"],
  ["C=C(CCCC)C(=O)CC[C@H](OC(C)=O)c1ccc(OCCO)cc1", "criterion met"],
  ["CN1C=C(C(=O)OCCS(C)(=O)=O)C(C(=O)OCCS(C)(=O)=O)=CC(c2ccc(CO)cc2)=CC1c1cccs1 (stereo not drawn)", "criterion met"],
  ["Cc1ccccc1C(O)C1C=CC2C(=O)N(c3ccccc3)C(=O)C2N1Nc1ccc([N+](=O)[O-])cc1 (stereo not drawn)", "criterion not met"],
  ["O=C1C2C=CC(C(O)c3ccco3)N(Nc3ccccc3)C2C(=O)N1c1ccccc1 (stereo not drawn)", "criterion not met"],
  ["COc1cc2c(cc1O)C(c1ccc(CN3CCCC3)cc1)N(C)CC2 (stereo not drawn)", "criterion met"],
  ["O=C1OCCC/C=C\\[C@H]2OC34C=CCN(c5ccc6ccccc6c5)C(=O)[C@H]3N(CCCO)C(=O)[C@@H]4C12 (stereo partly drawn)", "criterion not met"],
  ["NC(=O)[C@H]1[C@@H]2C(=O)O[C@@H](c3ccccc3)[C@@H](c3ccccc3)N2[C@@H](c2ccc(O)cc2)[C@]12C(=O)Nc1ccc(C#CC3=CCCCC3)cc12", "criterion not met"],
  ["COc1ccc(C(=O)Nc2cccc(CN3C(=O)[C@]4(O[C@H](CCn5cc([C@H](O)c6ccccc6)nn5)[C@@H]([Si](C)(C)c5ccc(OC)cc5)[C@@H]4C)c4ccccc43)c2)cc1", "criterion not met"],
  ["C=CC1c2cc(O)c(OC)cc2CCN1Cc1ccc([N+](=O)[O-])o1 (stereo not drawn)", "criterion met"],
  ["C=CCC(OC(C)=O)[C@@H]1[C@@H](N(Cc2ccc(-c3ccccc3)cc2)C(=O)Cc2ccc(F)cc2)c2cc(OCCCO)ccc2N1C(=O)Cc1ccc2ccccc2c1 (stereo partly drawn)", "criterion met"],
  ["CCCCC=C[C@@H](NC(=O)c1ccccc1)c1ccccc1", "criterion not met"]
]}

---

assay: E. coli growth modulation, two-sided OD650, primary screen, E. coli filamentation project, strain DRC41, 24 h (AID 1093); details: OD650, 24 h, higher = more signal, called active from +8 up or from −8 down;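 note: MC1000 strain lacking acrAB efflux and sulA so SOS filamentation is blocked; test concentration not given here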
Would you mind labelling by z-score? At or over -0.2 is Condition met, under is Condition not met.

{"columns": ["compound", "class label"],
 "data": [
  ["COC(=O)C1=CC(CCCO)=CC(C)N(Cc2cccc(OC(F)(F)F)c2)C=C1C(=O)OC (stereo not drawn)", "Condition not met"],
  ["O=C(CS)NCCCCCNC(=O)[C@@H]1C[C@@H]2C(=O)N[C@@H](Cc3ccccc3)C(=O)N2[C@@H]1c1cccc(OCCO)c1", "Condition met"],
  ["CCCCCN1CC=CC23O[C@@H]4C=CCOC(=O)[C@@H]4[C@H]2C(=O)N(CCO)[C@@H]3C1=O (stereo partly drawn)", "Condition not met"],
  ["COCCOC(=O)N1C(=O)[C@@]2(c3cc(C#CCCO)ccc31)[C@H](C(=O)N1CCCCCCC1)[C@H]1C(=O)O[C@H](c3ccccc3)[C@H](c3ccccc3)N1[C@@H]2c1ccccc1OCCO", "Condition not met"],
  ["COc1cc2c(cc1O)C(c1cccs1)N(Cc1sc3ccccc3c1Cl)CC2 (stereo not drawn)", "Condition not met"],
  ["COc1ccc([Si](C)(C)[C@H]2[C@H](CC(=O)N3CCC[C@H]3CO)O[C@@]3(C(=O)N(Cc4ccc(N5CCC5=O)cc4)c4ccccc43)[C@@H]2C)cc1", "Condition met"],
  ["Cc1ccccc1C(O)C1C=CC2C(=O)NC(=O)C2N1Nc1ccc(Cl)cc1Cl (stereo not drawn)", "Condition not met"],
  ["COc1ccc(C(=O)Nc2cccc(CN3C(=O)[C@]4(O[C@H](CCn5cc([C@H](O)c6ccccc6)nn5)[C@@H]([Si](C)(C)c5ccc(OC)cc5)[C@@H]4C)c4ccccc43)c2)cc1", "Condition met"]
]}

---

experiment: small-molecule binders of probe aLefty1, primary screen, biochemical, small-molecule microarray, 635/667 nm fluorescence (AID 1153); settings: higher = more signal;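 note: score merges spot fluorescence with signal-to-noise ratio from the scanned slide images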

{"columns": ["molecule", "composite z-score"],
 "data": [
  ["CN1C(=O)C2C=CC(C(O)c3ccc(I)cc3)N(Nc3ccccc3)C2C1=O (stereo not drawn)", 0.195],
  ["CO[C@H]1O[C@H](CO)[C@@H](OC(=O)CCc2ccccc2)[C@H](OC(=O)c2cc3ccccc3[nH]2)[C@H]1OC(=O)c1cc2ccccc2[nH]1", -0.162],
  ["CC(C)C[C@@H]1NC(=O)CNC(=O)[C@@]23C(=O)N[C@@H](Cc4ccccc4)C2[C@H](C)[C@@]2(C)O[C@H]2C3/C=C/C/C=C\\CNC1=O (stereo partly drawn)", -0.0265],
  ["C=C(COC)C(=O)CC[C@H](OC(=O)c1cccnc1)c1ccc(CO)o1", -0.147],
  ["CCCCCCCCCCC(O)C1C=CC2C(=O)N(C)C(=O)C2N1Nc1cc(OC)c(OC)c(OC)c1 (stereo not drawn)", 0.166],
  ["COCCOC(=O)N1C(=O)[C@@]2(c3cc(C#CCC(C(=O)OC)C(=O)OC)ccc31)[C@H](c1ccc(O)cc1)N1[C@H](c3ccccc3)[C@H](c3ccccc3)OC(=O)[C@H]1[C@@H]2C(=O)NC[C@H](O)c1ccccc1", -0.159],
  ["O=C(CS)NCCCCCCNC(=O)[C@@H]1C[C@@H]2C(=O)NCC(=O)N2[C@@H]1c1ccc(O)cc1", 0.0341],
  ["O=C(O)[C@@H]1C[C@@H]2C(=O)N3CCC[C@H]3C(=O)N2[C@@H]1c1cccc(OCCO)c1", 2.57],
  ["COC(=O)[C@@]1(Cc2ccc(OC)cc2)[C@H]2c3cc(C(=O)N4CCCC4)n(Cc4cc(C)n(C)n4)c3C[C@H]2CN1C(=O)c1ccccc1", 0.947],
  ["CC(C)CNC(=O)[C@@]1(c2ccc([N+](=O)[O-])cc2)CC(=O)N(C2CCCCC2)[C@@H]1c1ccc(CO)cc1", 0.164],
  ["CCOC(=O)C1=C[C@@H](C(C)(C)C)N(S(=O)(=O)c2ccc(C)cc2)[C@H]1c1ccccc1", 0.407],
  ["O=C1NC(=O)C2C1C=CC(C(O)c1ccccn1)N2Nc1ccc(Cl)cc1Cl (stereo not drawn)", 0.121],
  ["COCC1=C2[C@@H](CCc3ccccc3)OB(O)C[C@@H]2[C@@H]2C(=O)N(C)C(=O)[C@@H]2C1", 0.0355]
]}
